TEST_SYSTEM: full-length beta-Catenin (Uniprot ID P35222) (Homo sapiens (Human)) (UniProt P35222)
Sequence (P35222 whole entry): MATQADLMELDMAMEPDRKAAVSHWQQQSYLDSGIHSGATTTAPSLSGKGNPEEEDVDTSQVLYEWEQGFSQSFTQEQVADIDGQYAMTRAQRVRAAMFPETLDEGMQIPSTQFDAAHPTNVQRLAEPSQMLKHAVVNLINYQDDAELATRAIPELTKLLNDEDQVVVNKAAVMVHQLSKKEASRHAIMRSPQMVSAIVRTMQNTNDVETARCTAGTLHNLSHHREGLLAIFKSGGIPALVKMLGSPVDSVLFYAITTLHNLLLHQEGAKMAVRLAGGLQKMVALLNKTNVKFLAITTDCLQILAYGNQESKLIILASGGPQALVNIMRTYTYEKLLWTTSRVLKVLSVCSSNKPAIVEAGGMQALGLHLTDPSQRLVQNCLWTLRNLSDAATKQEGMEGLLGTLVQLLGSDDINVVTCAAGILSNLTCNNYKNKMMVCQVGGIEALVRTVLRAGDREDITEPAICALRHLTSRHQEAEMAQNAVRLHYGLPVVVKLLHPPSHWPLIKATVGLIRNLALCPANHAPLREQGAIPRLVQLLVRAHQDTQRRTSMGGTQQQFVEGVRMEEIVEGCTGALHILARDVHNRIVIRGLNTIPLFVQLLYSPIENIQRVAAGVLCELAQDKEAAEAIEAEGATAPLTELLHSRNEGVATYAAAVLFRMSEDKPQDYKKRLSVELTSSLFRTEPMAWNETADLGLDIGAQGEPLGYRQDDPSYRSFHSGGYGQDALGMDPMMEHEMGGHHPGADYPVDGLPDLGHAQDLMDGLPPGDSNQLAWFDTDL
METHOD: fluorescence polarization competition; full-length beta-catenin, 5FAM-TCF4 10-53 probe
Starred links: 1 amine or outer side, 2 acyl side, 3 side chain; linkers in the order of their positions; H or OH if unused. Positions of bridges follow the written chain, without caps; N, C: chain ends. Non-standard residues stand in square brackets, D forms with d. Primed or numbered codes have the meaning given here. B5(5) = 2,2-bis(4-pentenyl)glycine, 2-amino-2-(pent-4-en-1-yl)hept-6-enoic acid (stitching residue), C=CCCCC(CCCC=C)(N[*:1])C(=O)[*:2]; TfeGA = (S)-2-amino-3-((carboxymethyl)(2,2,2-trifluoroethyl)amino)propanoic acid, O=C([C@H](CN(CC(=O)[*:3])CC(F)(F)F)N[*:1])[*:2]; EtGA = (S)-2-amino-3-((carboxymethyl)(ethyl)amino)propanoic acid, CCN(CC(=O)[*:3])C[C@H](N[*:1])C(=O)[*:2]; B5 = 2-amino-2-(pent-4-en-1-yl)hept-6-enoic acid, C=CCCCC(CCCC=C)(N[*:1])C(=O)[*:2]; Bta = N[C@@H](Cc1csc2ccccc12)C(=O)O; αAllylPro = C=CC[C@@]1(C(=O)O)CCCN1; Aad = N[C@@H](CCCC(=O)O)C(=O)O; S8 = C=CCCCCCC[C@](C)(N)C(=O)O
Listing: IC50 of selected binders
MEASURE_NAME: IC50

binder="Ac-[αAllylPro]DI[B5(5)]D[EtGA]AAFQ[S8]F[Bta]Q-NH2 (staple 1-4, 4-11; not fully specified; printed as Ac-PL3-Asp-Ile-B5-Asp-EtGa-Ala-Ala-Phe-Gln-S8-Phe-BztA-Gln-NH2) [I-608]" measure_name=IC50 experimental_value="211 nM"
binder="Ac-[αAllylPro]DI[B5]D[TfeGA]AAFQ[S8]F[Bta]Q-NH2 (staple 1-4, 4-11; not fully specified) [I-610]" measure_name=IC50 experimental_value="54 nM"
binder="Ac-[αAllylPro]DI[B5]D[Aad]AAFQ[S8]F[Bta]Q-NH2 (staple 1-4, 4-11) [I-612]" measure_name=IC50 experimental_value="64 nM"
binder="Ac-[αAllylPro]DI[B5(5)]D[EtGA]AAFQ[S8]F[Bta]Q-NH2 (staple 1-4, 4-11; also: staple isomer 2, later eluting HPLC peak) [I-609]" measure_name=IC50 experimental_value="80 nM"
binder="Ac-[αAllylPro]DI[B5]D[TfeGA]AAFQ[S8]F[Bta]Q-NH2 (staple 1-4, 4-11; also: staple isomer 2) [I-611]" measure_name=IC50 experimental_value="55 nM"
